system: rodent lifetime carcinogenesis bioassay, tumor incidence TD50; test: carcinogenic potency in animals, long-term in vivo studies, CPDB compilation (AID 1745844); conditions: rat; strain MRC-Wistar; males; by gavage; site: colorectum; lesion: one or several types; types not named; dosed 104 weeks; study length 104 weeks
Measured Quantity: TD50

Ask: Which TD50 value is on record for `CC(=O)CN(CC(C)=O)N=O` ?
Result: 1.56 mg/kg/day

----------
Give TD50 for every item shown.
system: rodent lifetime carcinogenesis bioassay, tumor incidence TD50; assay: carcinogenic potency in animals, long-term in vivo studies, CPDB compilation (AID 1745844); conditions: mouse; strain B6C3F1; females; in feed; site: liver; lesion: hepatocellular adenoma + hepatocellular carcinoma + neoplastic nodule; dosed 104 weeks; study length 104 weeks
Answer shape: numeric part, then the unit.

[[record]]
molecule = "CCCCCCCCS(=O)C(C)Cc1ccc2c(c1)OCO2 (configuration not stated)"
reported_result = "725 mg/kg/day"


From here, focus on the item given below.
Ask: Which TD50 value is on record for `Nc1ncc([N+](=O)[O-])s1` ?
Result: 109 mg/kg/day
